Give measured normalized growth for each item. Keep answers brief.
# Method Summary: chemical genetic growth profiling, strain panel (AID 1159580);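 further: tested at 20 µM; growth read once vehicle control cultures reached saturation at 30 °C; 1 = growth at the plate median or of vehicle wells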
# Condition Info: S. cerevisiae deletion strains, growth OD, locus YPR163C, strain tif3, stronger effect = lower value
Among all 5,500 compounds or so, about 2,000 (36%) were called active. Roughly 18% stayed inconclusive and do not appear here. The list shows a part of the results.

CC1(C)C2CC(=O)[C@]3(C)C(CC[C@@]4(C)[C@H](c5ccoc5)OC(=O)[C@H]5O[C@]543)[C@@]2(C)C=C[C@@H]1O (stereo partly specified); 0.987 (inactive)
CC1=CC2C(CC1=O)C(C)=CCC2C(C)C (stereo unspecified); 0.97 (inactive)
CC1OC1P(=O)(O)O (stereo unspecified); 0.979 (inactive)
NC(=O)c1cccc(N)c1; 1 (inactive)
Nc1nc2ncc(=O)[nH]c2c(=O)[nH]1; 0.988 (inactive)

Next item in the queue.
Ask: Assign normalized growth to the following record: O=C(C1CCCCC1)N1CC(=O)N2CCc3ccccc3C2C1 (stereo unspecified)
Result: 1.02 (inactive)

###

Kindly state normalized growth for each of the entries shown.
# Method Summary: chemical genetic growth profiling, strain panel (AID 1159580)
# Condition Info: S. cerevisiae deletion strains, growth OD, locus YOR231W, strain MKK1, stronger effect = lower value
Among all 5,500 compounds or so, about 2,000 (36%) were called active. Inconclusive results (about 18%) are left out. The list shows a part of the results.
Give bare numbers.

For orientation, consider the following solved cases.
Cc1onc(-c2c(F)cccc2Cl)c1C(=O)ON=C1C2CC3CC(C2)CC1C3; 0.9
Cc1onc(-c2c(Cl)cccc2Cl)c1C(=O)NC(C)(C)CC(C)(C)C; 1.02
CC(=O)Nc1ccc(S(=O)(=O)Nc2ccccc2Oc2ccc(Cl)cc2Cl)cc1; 0.994
COc1cc2c(cc1OC)C1Cc3ccc(OC)c(OC)c3CN1CC2 (stereo unspecified); 0.99

Field: normalized growth. Fill in for each record below.
1. CCNC(=O)CC[C@H](N)C(=O)O
2. CC1=CC2C(CC1=O)C(C)=CCC2C(C)C (stereo unspecified)
3. O=[N+]([O-])c1ccc2oc(C(O)c3cccc(Cl)c3)cc2c1 (stereo unspecified)

Result:
1: 1.02; 2: 0.993; 3: 1.01

I have 2 molecules here; please give me normalized growth for each one.
1. COC(=O)[C@@H]1OC(=O)[C@H]2O[C@@]23[C@@]1(C)CCC1[C@@]2(C)CCC(=O)C(C)(C)C2C[C@@H](OC(C)=O)[C@]13C (stereo partly specified)
2. C#CCCCCCCCCCCCC(O)CC(O)CO (stereo unspecified)

Result:
1: 0.98; 2: 0.851

For each listed entry, give its normalized growth.
1. CC(=O)OCC(COC(C)=O)OC(C)=O
2. OCCOCCN1CCN(C2=Nc3ccccc3Sc3ccccc32)CC1

Result:
1: 0.993; 2: 0.981

###

# Method Summary: chemical genetic growth profiling, strain panel (AID 1159580);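 further: tested at 20 µM; growth read once vehicle control cultures reached saturation at 30 °C; 1 = growth at the plate median or of vehicle wells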
# Condition Info: S. cerevisiae deletion strains, growth OD, locus YLR039C, strain RIC1, stronger effect = lower value
The whole screen tested about 5,500 compounds, of which about 2,000 (36%) were called active. Another 18% or so got no clear call; they are omitted. This is one part of the list.
Please note: normalized growth exactly at 1 is N. Only values below 1 get Y.

N#Cc1ncc(C(F)(F)F)cc1Oc1ccc(Cl)cc1; Y
Cc1onc(-c2c(F)cccc2Cl)c1C(=O)c1ccc(F)cc1; Y
O=C1CC2OCC=C3CN4CC[C@]56c7ccccc7N1C5[C@H]2[C@H]3CC46 (some centres undefined); N
COc1c2ccoc2c(OC)c2oc(=O)ccc12; Y
CC(C)COCC(CN(Cc1ccccc1)c1ccccc1)N1CCCC1 (centres undefined); Y
CCCCNc1ccc(C(=O)OCCN(C)C)cc1; N
C=C1CCC(OC(C)=O)/C(C)=C/C[C@@H]2[C@@H]1CC2(C)C (some centres undefined); Y
CC(C)C(=O)Nc1ccc([N+](=O)[O-])c(C(F)(F)F)c1; Y
CCN(CC)C(=O)c1cccc(C)c1; N
CC1(C)O[C@@H]2CC3C4CCC5=CC(=O)CCC5(C)C4(F)C(O)CC3(C)[C@]2(C(=O)CCl)O1 (some centres undefined); Y

Ask: Answer whether the compound Oc1ccc(Cl)cc1Cc1cc(Cl)ccc1O has normalized growth strictly less than 1
Result: Y

Ask: Hi there! Is normalized growth for CCCCOC(=O)c1ccccc1C(=O)OCCCC below 1, do you know?
Result: Y

Ask: A record lists CC(/C=N\O)=N/Nc1ccccc1 . Is its normalized growth below 1?
Result: Y

Ask: Does this compound meet the criterion normalized growth < 1? CCCCCCOc1ccccc1C(N)=O
Result: N

Ask: Is 1 strictly greater than the compound's reported normalized growth? compound: O=C(CSCc1cccc2ccccc12)NNC(=O)c1ccc(F)cc1
Result: Y

Ask: # check: normalized growth < 1 for O=S1OCC2C(CO1)C1(Cl)C(Cl)=C(Cl)C2(Cl)C1(Cl)Cl (centres undefined)
Result: N

Ask: Field: below-cutoff. Rule: recorded normalized growth strictly less than 1. Subject: C#CCCCCCCCCCCCC(=O)CC(O)COC(C)=O (centres undefined)
Result: Y

Ask: normalized growth strictly < 1 for this compound? CCCCOC(=O)c1ccc(N)cc1
Result: Y

Ask: Strictly below 1 in normalized growth? Cc1cc(NC(=O)C2=C(O)c3ccccc3S(=O)(=O)N2C)no1
Result: Y

Ask: Please check: normalized growth for C=C1CCC2C(CC2(C)C)C(=C)CC/C1=N\O (centres undefined) , strictly under 1 or not?
Result: Y

Ask: State whether 1 exceeds normalized growth recorded for O=C(c1ccccc1)c1cc2c(cc1Br)OCCO2 .
Result: Y

Ask: Lab note: confirm whether the reported normalized growth for this compound is below 1, equality not counting. compound: C=CCCCCCCCCCCCC(O)CC(O)COC(C)=O (centres undefined) (tested in a mixture with another compound)
Result: N

Ask: Quick check: normalized growth of CCCCN(CCCC)CCCOC(=O)c1ccc(N)cc1 under 1?
Result: Y

Ask: I'd appreciate it if you could check whether C=C1CCC(C2CC(=O)OC2=O)C(=O)CCC2C1CC2(C)C (centres undefined) has normalized growth smaller than 1.
Result: N

Ask: Is the reported normalized growth for O=c1cc[nH]c(=S)[nH]1 strictly below 1?
Result: N

Ask: Quick check: normalized growth of COC(=O)C[C@H]1C(C)(C)C(=O)[C@@H]2CC3=C(CC[C@]4(C)C3=CC(=O)O[C@H]4c3ccoc3)[C@@]1(C)C2=O under 1?
Result: N

Ask: Quick check: does CO[C@@]1(NC(=O)CSCC#N)C(=O)N2C(C(=O)O)=C(CSc3nnnn3C)CSC21 (some centres undefined) have normalized growth under 1?
Result: N

Ask: I wonder whether c1ccc(-c2cc3c(nn2)CCc2nonc2-3)cc1 has normalized growth below 1. Can you tell?
Result: N

Ask: Criterion: normalized growth strictly below 1. Is it met by CCCCOC(=O)c1ccccc1C(=O)OCc1ccccc1 ?
Result: Y

###

# Method Summary: chemical genetic growth profiling, strain panel (AID 1159580);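 further: tested at 20 µM; growth read once vehicle control cultures reached saturation at 30 °C; 1 = growth at the plate median or of vehicle wells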
# Condition Info: S. cerevisiae deletion strains, growth OD, locus YNL222W, strain SSU72
Out of some 5,500 compounds screened, about 2,000 (36%) were called active. About 18% were inconclusive and are not listed. Rule as the data show it: active = normalized growth mostly below about 0.91 (no sharp cut-off); inconclusive = no clear call, values can overlap the other calls; inactive = mostly above about 0.92. Some of the results follow.
Pick one: y = active, n = inactive

Cc1onc(-c2c(Cl)cccc2Cl)c1C(=O)NC(C)(C)CC(C)(C)C; n
Cc1onc(-c2c(Cl)cccc2Cl)c1C(=O)NNc1c(Cl)cccc1Cl; n
ClC1=C(C=Nc2ccc(Cl)cc2)CSc2ccc(Cl)cc21; n

Ask: Per the records of this test, what outcome belongs to CCc1ccn2cc(Nc3ccccc3Cl)nc2c1 ?
Result: n

Ask: Outcome logged for O=C(Nc1ccc(Cl)cc1)OCCSc1nc2ccccc2s1 in this assay:
Result: n

Ask: What classification did S=c1[nH]nc(Nc2ccc(I)cc2)s1 end up with in this test?
Result: y

Ask: Hi team, can someone confirm the assay call for O=C(Nc1ccc(OC(F)(F)F)cc1)N1CCN(c2nc(-c3ccccc3)ns2)CC1 ?
Result: n

###

# Method Summary: chemical genetic growth profiling, strain panel (AID 1159580);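 further: tested at 20 µM; growth read once vehicle control cultures reached saturation at 30 °C; 1 = growth at the plate median or of vehicle wells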
# Condition Info: S. cerevisiae deletion strains, growth OD, locus YLR403W, strain SFP1, stronger effect = lower value
The whole screen tested about 5,500 compounds, of which about 2,000 (36%) were called active. Another 18% or so got no clear call; they are omitted. Some of the results follow.
Assign labels as follows, please: t for normalized growth below 0.9; f for normalized growth equal to or exceeding 0.9.

// below: answered molecules
Cc1ccc(NS(=O)(=O)c2ccc(Cl)cc2)c(N=Cc2cc(Cl)cc(Cl)c2O)c1; t
CC(=O)Nc1ccc(S(=O)(=O)Nc2ccccc2Oc2ccc(Cl)cc2Cl)cc1; f
O=[N+]([O-])c1ccc(Sc2ssc(=S)c2-c2ccccc2)nc1; t
O=[N+]([O-])c1ccc2oc(C(O)c3cccc(Cl)c3)cc2c1 (stereo not given); f

Okay, now this molecule:
Ask: Hello, I'm reviewing records and need to know if normalized growth of FC(F)(F)c1ccnc(N2CCCN(C(=S)Nc3ccc(Cl)cc3Cl)CC2)n1 is below 0.9. Could you check?
Result: f
